- Tested on: Cryptococcus gattii
- testDetails: checkerboard drug interaction (FICI, MICc);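 also: simplified diagonal checkerboard screen pairing antifungals with FPPS inhibitors, FICI computed under the Loewe additivity model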
- Type: cell-based
- measurementParameters: in combination with 10-ZOL
observable: antifungal MICc
Please give the numeric answer without any surrounding text.

# antifungal MICc lookup, item `C[C@@H]1[C@H](O)[C@@H](C)/C=C/C=C/C=C/C=C/C=C/C=C/C=C/[C@H](O[C@@H]2O[C@H](C)[C@@H](O)[C@H](N)[C@@H]2O)C[C@@H]2O[C@](O)(C[C@@H](O)C[C@@H](O)[C@H](O)CC[C@@H](O)C[C@@H](O)CC(=O)O[C@H]1C)C[C@H](O)[C@H]2C(=O)O`
0.125

Likewise for CC(=O)N1CCN(c2ccc(OCC3COC(Cn4ccnc4)(c4ccc(Cl)cc4Cl)O3)cc2)CC1 (stereo not shown) ?
0.125

Likewise for `OC(Cn1cncn1)(Cn1cncn1)c1ccc(F)cc1F` ?
1

Likewise for `CC[C@H](C)C[C@H](C)CCCCCCCCC(=O)N[C@H]1C[C@@H](O)[C@@H](NCCN)NC(=O)[C@@H]2[C@@H](O)CCN2C(=O)[C@H]([C@H](O)CCN)NC(=O)[C@H]([C@H](O)[C@@H](O)c2ccc(O)cc2)NC(=O)[C@@H]2C[C@@H](O)CN2C(=O)[C@H]([C@@H](C)O)NC1=O` ?
2

Likewise for `C[C@@H](c1ncncc1F)[C@](O)(Cn1cncn1)c1ccc(F)cc1F` ?
0.033

Likewise for CCC(C)n1ncn(-c2ccc(N3CCN(c4ccc(OCC5COC(Cn6cncn6)(c6ccc(Cl)cc6Cl)O5)cc4)CC3)cc2)c1=O (stereo not shown) ?
0.125

Likewise for `Nc1nc(=O)[nH]cc1F` ?
0.25
